Measured melting point, listed per entry.

COc1ccc(OC)c2c(N=[N+]=[N-])ccnc12	106 °C
CCc1cccc(CNC[C@@H](O)[C@H](Cc2cc(F)cc(F)c2)NC(=O)N2CCC(CS(C)(=O)=O)CC2)c1	130 to 134 °C
O=C(O)c1ccn(-c2ccc(Cl)cc2)c1	222 to 224 °C

Field request: melting point | item: "COc1ccc(-c2c(OCCN3CCOCC3)c3ccccc3oc2=O)cc1"
104 °C

Sample "O=c1c2ccc(Cl)cc2[nH]c2c(O)nn(CC#Cc3ccccc3Cl)c(=O)c12" — what was its melting point?
255 to 257 °C

# melting point lookup, item "O=C(c1ccccc1)N1CCCc2ncc3ccccc3c21"
208 to 210 °C

// lookup melting point for "COc1ccc(CCNC(=O)C(F)(F)F)cc1S(=O)(=O)N=CN(C)C"
143 to 144 °C

Give the measured melting point of "C/C(=C\c1ccc(C(=O)O)cc1)c1cc2c(s1)C(C)(C)CCC2(C)C" .
236 to 238 °C

Request the reported melting point associated with "COOC(=O)c1cc2c(Cl)cn(C)c2nc1C(=O)OOC"
129 to 137 °C

Reported melting point for "CCCCCc1ccc(NC2=NCCS2)cc1" : what is it?
77 to 78 °C

Value lookup for melting point; key = "Clc1ccnc2[nH]c(CCc3ccccc3)cc12"
159 to 160 °C

* * *

Parameter: melting point. Scope: all listed entries.

Some entries whose results are on file:
CN1CC(CO)CC2c3cccc4c3C(CN4)CC21 (stereo unspecified)	226 to 228 °C
Fc1ccc(-c2nc(-c3ccc[nH]3)[nH]c2-c2ccc(F)cc2)cc1	276 °C
CCN(CC)C(=S)Oc1cccnc1F	52 to 54 °C

What value of measured melting point is listed for "O=c1[nH]nnn1-c1cc(C(F)(F)F)cc(C(F)(F)F)c1" ?
145 to 147 °C

Look up melting point for this compound: "COc1cccc(S(=O)(=O)c2cccc(N)c2C#N)c1"
186 to 191 °C

Consider the compound shown here: "COc1cc(/C=C2/C(=O)N(C)C(=O)/C2=C/c2ccccc2)cc(OC)c1OC" What is its recorded melting point?
131 to 133 °C

Give the measured melting point of "Cc1nc(NCC2CC2)c2nnn(-c3ccc(C(C)C)cc3Br)c2n1" .
166 to 167 °C

May I ask what melting point has been recorded for "CCc1cc(OCc2ccccc2)cc(=O)o1" ?
62 to 63 °C

Using the record for "CCOC(=O)C(=O)Nc1cccc(N)c1C#N" , report its melting point.
133 to 136 °C

Give the measured melting point of "Cc1nc(N2CCN(Cc3ccc(OC(F)(F)F)cc3)C2=O)sc1C(N)=O" .
185 to 187 °C

If you can, please state the reported melting point value of "Cc1cnc(C(=O)c2[nH]c3ccc(Cl)cc3c2CC(=O)O)cc1C" .
245 to 246 °C

* * *

metric: melting point

Consider the worked cases shown below.
CC(C)(C)OC(=O)NC1(CCN2C(=O)c3ccccc3C2=O)CC1	125 to 127 °C
CCOC(=O)C1CCCCC1(c1ccc(O)c(C(C)(C)C)c1)c1ccc(O)c(C(C)(C)C)c1 (stereo not given)	86 °C
O=C1NCc2c(-c3ccccc3)cccc2N1C1CCCCC1	229 to 231 °C
COc1ccc(-c2nc(Cn3cncn3)nc3cc(OC)c(OC)cc23)cc1	206 to 207 °C
C=C1CCN(c2ccc(Cl)cc2)C1=O	119 to 120 °C

If you can, please state the reported melting point value of "CCOC(=O)c1cc2c(nc1C)C(=Cc1ccco1)CCC2" .
119 to 120 °C

Given the entry "CCN(CC)C(=O)n1cnc(S(=O)(=O)CC2CCCCC2)n1" , report its measured melting point.
40 to 46 °C

Fill in: melting point of "CNc1nc(-c2cccc(NC(=O)c3ccc(OC)c(Cl)c3)c2)c2cc(OC)c(OC)cc2n1" is ___
130 to 132 °C

melting point for "CCCC(=O)c1cnc2c(C)cccc2c1Nc1cc(OC)ccc1OC" ?
115 to 116 °C

What value of measured melting point is listed for "O=c1[nH]c2c(CCO)c3ccccc3n2c2ccccc12" ?
248 to 252 °C

Quick one: melting point for "O=C(O)CN(C(=O)CN1C(=O)c2ccccc2C1=O)c1ccccc1" ?
224 °C
